Values from ChEMBL document CHEMBL2218924

Assignment: determine reported residual activity for the given compounds.
# assayTarget: Phosphorylase b kinase gamma catalytic chain, liver/testis isoform (Homo sapiens) (UniProt P15735)
# Sequence (P15735 whole entry, canonical isoform): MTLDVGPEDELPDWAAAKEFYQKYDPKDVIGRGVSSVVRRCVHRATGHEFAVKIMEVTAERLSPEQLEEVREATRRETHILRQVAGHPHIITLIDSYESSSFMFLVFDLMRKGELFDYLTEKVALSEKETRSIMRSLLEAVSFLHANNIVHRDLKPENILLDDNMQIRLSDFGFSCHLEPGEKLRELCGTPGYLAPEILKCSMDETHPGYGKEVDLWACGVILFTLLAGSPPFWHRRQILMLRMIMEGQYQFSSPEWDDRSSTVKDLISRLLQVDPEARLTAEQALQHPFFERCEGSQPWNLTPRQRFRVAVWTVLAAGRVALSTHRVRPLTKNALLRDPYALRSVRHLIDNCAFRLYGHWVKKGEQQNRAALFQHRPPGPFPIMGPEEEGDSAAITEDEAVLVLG
# experimentalContext: at 1 µM
Give bare numbers, in %.

These recorded examples may help you get a feel for the data.
>  <molecule>
CN(C)c1ccc(/C=C2\C(=O)Nc3ccccc32)cc1

>  <propertyName>
residual activity

>  <reported>
98

$$$$
>  <molecule>
Oc1c2ccccc2c2c3c(cccc13)N=N2

>  <propertyName>
residual activity

>  <reported>
77

$$$$
>  <molecule>
CNc1cc2c(Nc3cccc(Br)c3)ncnc2cn1

>  <propertyName>
residual activity

>  <reported>
104

$$$$

## Input So what's the measured residual activity for this one? c1ccc2c(-c3ccncc3)c[nH]c2c1
## Output 103
